- Tested on: G. mellonella larvae
- test details: in vivo toxicity in Galleria mellonella larvae
- assay context: 72 h post-injection; 40 μg per larvae (133.33 mg/kg)
assay metric: % Mortality (%)
Field: numeric (%). Do not append units.

Known % Mortality results, listed for orientation:
{"columns": ["compound", "measured on", "unit of measure", "numeric value"],
 "data": [
  ["O.O.O.O.O=C([O-])c1cccc(C(=O)[O-])c1.O=C([O-])c1cccc(C(=O)[O-])c1.[Mn+2].[Mn+2].c1cnc2c(c1)ccc1cccnc12.c1cnc2c(c1)ccc1cccnc12.c1cnc2c(c1)ccc1cccnc12 [compound 7, [Mn2(isoph)2(phen)3]·4H2O]", "G. mellonella larvae", "%", 80],
  ["O.O.O.O.O.O=C([O-])c1ccccc1C(=O)[O-].[Mn+2].c1cnc2c(c1)ccc1cccnc12.c1cnc2c(c1)ccc1cccnc12 [compound 6, [Mn(ph)(phen)2(H2O)]·4H2O]", "G. mellonella larvae", "%", 90],
  ["O.O.O=C([O-])c1ccccc1C(=O)[O-].[Mn+2].c1cnc2c(c1)ccc1cccnc12 [compound 5, [Mn(ph)(phen)(H2O)2]]", "G. mellonella larvae", "%", 90],
  ["O.O.O.O.O.O=C([O-])c1ccc(C(=O)[O-])cc1.[Mn+2].c1cnc2c(c1)ccc1cccnc12.c1cnc2c(c1)ccc1cccnc12 [compound 9, [Mn(tereph)(phen)2]·5H2O]", "G. mellonella larvae", "%", 90],
  ["O.O.O.O.O.O.O.O.O.O.O.O.O.O.O.O.O=C([O-])c1cccc(C(=O)[O-])c1.O=C([O-])c1cccc(C(=O)[O-])c1.[Mn+2].[Mn+2].c1cnc2c(c1)ccc1cccnc12.c1cnc2c(c1)ccc1cccnc12.c1cnc2c(c1)ccc1cccnc12.c1cnc2c(c1)ccc1cccnc12.c1cnc2c(c1)ccc1cccnc12 [compound 8, {[Mn(phen)2(H2O)2]}2(isoph)2(phen)·12H2O]", "G. mellonella larvae", "%", 90]
]}

Input line: Look up % Mortality: c1cnc2c(c1)ccc1cccnc12 [phen, 1,10-phenanthroline, reference compound]
Output line: 80

---

- Tested on: VERO (ATCC CCL-81) normal epithelial cells
- test details: VERO cell cytotoxicity (resazurin)
- assay context: 24 h incubation; called CC50 in methods
Labelling: Cytotoxicity IC50 VERO cells reported below 50 µg/mL becomes Satisfied; at or above becomes Not satisfied.

See these solved cases before continuing.
{"columns": ["compound", "measured on", "class assignment"],
 "data": [
  ["O.O.O.O.O.O.O.O.O.O.O.O.O.O.O.O.O=C([O-])c1cccc(C(=O)[O-])c1.O=C([O-])c1cccc(C(=O)[O-])c1.[Mn+2].[Mn+2].c1cnc2c(c1)ccc1cccnc12.c1cnc2c(c1)ccc1cccnc12.c1cnc2c(c1)ccc1cccnc12.c1cnc2c(c1)ccc1cccnc12.c1cnc2c(c1)ccc1cccnc12 [compound 8, {[Mn(phen)2(H2O)2]}2(isoph)2(phen)·12H2O]", "VERO (ATCC CCL-81) normal epithelial cells", "Satisfied"],
  ["O.O.O.O.O=C([O-])c1cccc(C(=O)[O-])c1.O=C([O-])c1cccc(C(=O)[O-])c1.[Mn+2].[Mn+2].c1cnc2c(c1)ccc1cccnc12.c1cnc2c(c1)ccc1cccnc12.c1cnc2c(c1)ccc1cccnc12 [compound 7, [Mn2(isoph)2(phen)3]·4H2O]", "VERO (ATCC CCL-81) normal epithelial cells", "Not satisfied"],
  ["O.O.O=C([O-])c1ccccc1C(=O)[O-].[Mn+2].c1cnc2c(c1)ccc1cccnc12 [compound 5, [Mn(ph)(phen)(H2O)2]]", "VERO (ATCC CCL-81) normal epithelial cells", "Satisfied"],
  ["O.O.O.O.O.O=C([O-])c1ccccc1C(=O)[O-].[Mn+2].c1cnc2c(c1)ccc1cccnc12.c1cnc2c(c1)ccc1cccnc12 [compound 6, [Mn(ph)(phen)2(H2O)]·4H2O]", "VERO (ATCC CCL-81) normal epithelial cells", "Satisfied"],
  ["O.O.[Cl-].[Cl-].[Mn+2] [MnCl2·2H2O, reference compound]", "VERO (ATCC CCL-81) normal epithelial cells", "Not satisfied"]
]}

Below: the item to evaluate.
Input line: Determine if O.O.O.O.O.O=C([O-])c1ccc(C(=O)[O-])cc1.[Mn+2].c1cnc2c(c1)ccc1cccnc12.c1cnc2c(c1)ccc1cccnc12 [compound 9, [Mn(tereph)(phen)2]·5H2O] shows Cytotoxicity IC50 VERO cells strictly lower than 50 µg/mL.
Output line: Satisfied
